# measurement_target: cloned human dopamine D3 receptors (Homo sapiens, UniProt P35462)
# Construct: expressed in transfected cells; membrane homogenate
# Sequence (P35462 whole entry): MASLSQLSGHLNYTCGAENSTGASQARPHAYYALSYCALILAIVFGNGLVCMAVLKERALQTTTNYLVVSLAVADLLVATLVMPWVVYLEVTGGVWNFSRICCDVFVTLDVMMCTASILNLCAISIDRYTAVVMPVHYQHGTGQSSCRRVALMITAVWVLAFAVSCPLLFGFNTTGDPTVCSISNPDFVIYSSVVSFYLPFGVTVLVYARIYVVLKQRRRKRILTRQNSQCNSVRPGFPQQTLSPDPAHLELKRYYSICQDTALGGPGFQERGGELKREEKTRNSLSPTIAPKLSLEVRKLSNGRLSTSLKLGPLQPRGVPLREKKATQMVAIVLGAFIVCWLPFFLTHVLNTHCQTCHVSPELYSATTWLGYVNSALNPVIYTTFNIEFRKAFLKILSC
# measurement_notes: [N-Methyl-3H]Spiroperidol binding to cloned human dopamine D3 receptors
# particulars: read-out: D3 Ki
outcome_measure: Ki (µM)

# molecule, unit_descriptor, value
measured = [
    ("O=C(NCCCn1nnc2ccccc21)C1CC1CN1CCC(c2noc3ccsc23)CC1 (racemic)", "µM", 0.277),
    ("O=C([C@H](O)CCN1CCC(c2noc3ccsc23)CC1)N1CCCCC1", "µM", 0.0342),
    ("CC1CCC(NC(=O)C2CC2CN2CCC(Cc3ccccc3)CC2)CC1 (racemic)", "µM", 0.0304),
    ("CC1CCC(NC(=O)C2CC2CN2CCN(c3onc4c3CCc3ccccc3-4)CC2)CC1 (racemic)", "µM", 0.0471),
    ("CC1CCC(N2CC(CN3CCN(c4csc5cc(C(F)(F)F)ccc45)CC3)CC2=O)CC1 (racemic) [833953A]", "µM", 0.0888),
    ("COc1ccc2c(c1)c(N1CCN(C[C@@H]3C[C@H]3C(=O)NCC3CCNCC3)CC1)nn2C", "µM", 0.0143),
    ("COc1ccc2c(c1)c(N1CCN(C[C@@H]3C[C@H]3C(=O)NC3CCN(Cc4cccc(Cl)c4)CC3)CC1)nn2C", "µM", 0.00136),
    ("O=C(NNC(=O)C1CC1CN1CCC(c2noc3ccsc23)CC1)c1ccc(Cl)cc1 (racemic)", "µM", 0.453),
    ("CN1CCN(CCCNC(=O)[C@@H]2C[C@H]2CN2CCC(c3nsc4cc(Br)ccc34)CC2)CC1", "µM", 0.00649),
    ("O=C(NC1CCN(Cc2ncc[nH]2)CC1)[C@@H]1C[C@H]1CN1CCN(c2csc3cc(C(F)(F)F)ccc23)CC1", "µM", 0.00161),
    ("CC1CCC(NC(=O)C2CC2CN2CCN(c3noc4ccsc34)CC2)CC1 (racemic)", "µM", 0.00166),
    ("O=C([C@@H]1C[C@H]1CN1CCC(c2noc3c(C(F)(F)F)cccc23)CC1)N1CCC[C@@H](Cn2ccnc2)C1", "µM", 0.000239),
    ("O=C(NCCS(=O)(=O)c1cccc2cnccc12)C1CC1CN1CCC(c2noc3ccsc23)CC1 (racemic)", "µM", 0.657),
    ("CCC1CCC(NC(=O)C2CC2CN2CCC(c3noc4cc(Cl)ccc34)CC2)CC1 (racemic)", "µM", 0.0639),
    ("O=C(NC1CC2CCC1C2)C1CC1CN1CCC(c2noc3ccsc23)CC1 (racemic)", "µM", 0.0314),
]
